Consider the following molecules and their measured kinase still bound, per cent of control readings.
- target under test: WEE2 (human) (UniProt P0C1S8)
- Sequence (P0C1S8 whole entry, looked up): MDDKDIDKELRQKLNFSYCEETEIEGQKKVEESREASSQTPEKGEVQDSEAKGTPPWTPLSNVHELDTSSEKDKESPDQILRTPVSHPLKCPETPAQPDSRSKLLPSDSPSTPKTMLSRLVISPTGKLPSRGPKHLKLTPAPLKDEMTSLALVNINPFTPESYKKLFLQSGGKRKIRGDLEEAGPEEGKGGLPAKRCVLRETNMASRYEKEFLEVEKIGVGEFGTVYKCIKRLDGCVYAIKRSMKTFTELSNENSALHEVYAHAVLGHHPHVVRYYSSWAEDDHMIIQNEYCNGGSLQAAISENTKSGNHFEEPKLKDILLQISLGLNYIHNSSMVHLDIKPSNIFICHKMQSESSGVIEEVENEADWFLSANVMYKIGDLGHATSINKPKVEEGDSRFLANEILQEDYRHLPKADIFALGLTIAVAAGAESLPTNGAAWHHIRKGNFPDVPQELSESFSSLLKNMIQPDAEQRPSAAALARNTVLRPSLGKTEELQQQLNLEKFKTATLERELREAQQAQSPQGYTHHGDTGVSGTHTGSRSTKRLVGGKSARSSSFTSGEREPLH
- test name: KINOMEscan competition binding
- details: compound 10.0 µM
recorded metric: kinase still bound, per cent of control (%)

1) O=C(O)c1ccc(Nc2ncc3c(n2)-c2ccc(Cl)cc2C(c2c(F)cccc2F)=NC3)cc1 | 89
2) CCN1CCN(Cc2ccc(Nc3ncc4c(n3)N(C)c3ccccc3C(=O)N4C)cc2C(F)(F)F)CC1 | 64
3) Nc1ccc(-c2ccc3ncc4ccc(=O)n(-c5cccc(C(F)(F)F)c5)c4c3c2)cn1 | 100
4) COc1cc(N2CCN(C)CC2)ccc1Nc1nc(N)c(C(=O)c2c(Cl)cccc2Cl)s1 | 100
5) Cn1c(=O)n(-c2ccc(C(C)(C)C#N)cc2)c2c3cc(-c4cnc5ccccc5c4)ccc3ncc21 | 100
6) O=C1Nc2ccc(I)cc2/C1=C/c1cc(Br)c(O)c(Br)c1 | 94
7) Cc1ccc(NC(=O)c2cccc(C(C)(C)C#N)c2)cc1Nc1ccc2ncn(C)c(=O)c2c1 | 100
8) Cc1ccc(C(=O)Nc2cccc(C(F)(F)F)c2)cc1Nc1cncc(C(N)=O)c1 | 100
9) O=C(NC1CC1)c1cccc(-c2ccc3c(NC(=O)C4CC4)n[nH]c3c2)c1 | 100
10) COc1cc(C(=O)NC2CCN(C)CC2)ccc1Nc1ncc2c(n1)N(C1CCCC1)C(C)CC(=O)N2C (stereo unspecified) | 100
11) CCCS(=O)(=O)Nc1ccc(F)c(C(=O)c2c[nH]c3ncc(-c4ccc(Cl)cc4)cc23)c1F | 100
12) C=CC(=O)Nc1cccc(Nc2nc(N[C@H]3CC[C@H](N(C)C)CC3)nc3c2ncn3C(C)C)c1 | 100
13) C[C@@H](Oc1cc(-n2cnc3ccc(CN4CCN(C)CC4)cc32)sc1C(N)=O)c1ccccc1C(F)(F)F | 83
14) CC[C@@H]1C(=O)N(C)c2cnc(Nc3ccc(C(=O)NC4CCN(C)CC4)cc3OC)nc2N1C1CCCC1 | 100
15) O=C(NOC[C@H](O)CO)c1ccc(F)c(F)c1Nc1ccc(I)cc1F | 77
16) N#Cc1c(NC(=O)c2cccc3ccccc23)sc2c1CCCC2 | 70
